The origin of these recorded values is patent US6903185.

Target: NRE peptide (three-finger Zif268 variant selected by phage display) (synthetic) (UniProt P08046)
Assay: EMSA
Conditions: apparent Kd, NRE peptide alone
result type: pKd
# pKd = -log10(concentration in molar units)

[ask] Quick one: pKd of TCTGCAAGGGTTCAGCGTGGGCGGTAAG (double strand) [NZ site] ?
[reply] 9.74

====

Target: 268//NRE (six-finger fusion, Zif268 fingers - longer linker - NRE fingers) (synthetic)
Test: EMSA
Conditions: room temp
result type: Kd

[ask] Give Kd (268//NRE (six-finger fusion, Zif268 fingers - longer linker - NRE fingers) (synthetic)) of the following sequence: TCTGCAAGGGTTCAGGCGACACCAACCAA (double strand) [N site]
[reply] 0.19 nM

====

Target: NRE peptide (three-finger Zif268 variant selected by phage display) (synthetic) (UniProt P08046)
Test: EMSA
Conditions: apparent Kd with 0.1 nM Zif268 prebound to neighboring site
result type: pKd
# pKd = -log10(concentration in molar units)

[ask] Quick one: pKd of TCTGCAAGGGTTCAGCGTGGGCGGTAAG (double strand) [NZ site] ?
[reply] 10.22

====

Biological target: 268//NRE (six-finger fusion, Zif268 fingers - longer linker - NRE fingers) (synthetic)
Test: EMSA
Settings: calculated from koff/kon; direct titration <1.0 pM; room temp
result type: Kd (pM)
The answer is to be given in pM; state only the numeric part.

[ask] Give Kd (268//NRE (six-finger fusion, Zif268 fingers - longer linker - NRE fingers) (synthetic)) of the following sequence: TCTGCAAGGGTTCAGTGCGTGGGCGGTAAG (double strand) [N//Z site]
[reply] 0.003
